Parameter Ki: see the listing below.
Biological target: H3 histaminergic receptors (Rattus norvegicus, UniProt Q9QYN8)
Sequence (Q9QYN8 whole entry): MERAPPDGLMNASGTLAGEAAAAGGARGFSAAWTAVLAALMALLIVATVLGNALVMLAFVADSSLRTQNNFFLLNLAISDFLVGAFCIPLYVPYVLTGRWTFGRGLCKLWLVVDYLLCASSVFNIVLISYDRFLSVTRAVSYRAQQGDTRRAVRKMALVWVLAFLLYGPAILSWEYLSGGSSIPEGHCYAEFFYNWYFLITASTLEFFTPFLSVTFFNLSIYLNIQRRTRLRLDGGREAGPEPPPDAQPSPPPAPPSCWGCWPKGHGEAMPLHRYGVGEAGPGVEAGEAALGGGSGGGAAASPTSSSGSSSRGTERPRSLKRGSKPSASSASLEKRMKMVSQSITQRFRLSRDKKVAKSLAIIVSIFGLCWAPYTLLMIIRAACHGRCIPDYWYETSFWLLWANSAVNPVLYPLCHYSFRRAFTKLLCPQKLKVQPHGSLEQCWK
Test: Reversal by H3 antagonists of exogenous histamine-induced inhibition of histamine release in sections of rat cerebral cortex (Arrang et al.)
Assay type: biochemical
Conditions: read-out: Apparent dissociation constant (Ki) as histamine antagonists at receptors of rat brain; sections of rat cerebral cortex; exogenous histamine 1 μM; apparent Ki calculated from IC50 according to Cheng and Prusoff with histamine EC=0.1 μM

{"columns": ["query_smiles", "Ki"],
 "data": [
  ["O=C(CCCOc1ccccc1)N1CCC(c2cn(C(=O)Nc3ccc(Cl)cc3Cl)cn2)CC1", "34 nM"],
  ["O=C(N1CCC(c2c[nH]cn2)CC1)C12CC3CC(CC(C3)C1)C2", "63 nM"]
]}
